# key: entry, value: kon
# experimental-target: T1, purified CD160 (SPR analyte) (UniProt O95971 25-159, limits assumed)
# T1 sequence (looked up): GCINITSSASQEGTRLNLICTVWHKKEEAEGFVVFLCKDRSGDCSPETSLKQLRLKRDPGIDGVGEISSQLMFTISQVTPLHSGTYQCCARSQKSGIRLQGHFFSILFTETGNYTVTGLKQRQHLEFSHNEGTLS
# assay-remarks: SPR, Biacore T200, scFv captured on CM5 chip, CD160 as analyte, single-cycle kinetics, 1:1 Langmuir fit
All answers are understood in M⁻¹ s⁻¹, so give the number only.

Past entries and their recorded results:
- anti-CD160 scFv clone 3 (C83) (scFv) scFv: QVNLQESGPGLVQPSETLSLTCTVSGFSLTSYGVYWVRQPPGKGLEWMGRIWNDGGTDYNPALKSRLSISRDTSKSQVFLKLNSLQTEDTAIYFCARGWTHWGQGTLVTVSSGGGGSGGGGSGGGGSDIQMTQSPASLSASLGETVSIECLASEDIYNNLAWYQQKPGKSPQLLIYYASSLQDGVPSRFSGSGSGTQYSLKINSLESEDVATYFCLQDSEYPPTFGGGTKLELKR: 1.13e+06
- anti-CD160 scFv clone 6 (SC14) (scFv, Rat scFv, VH-linker-VL) scFv: EVQLVESGGGFVQPGRSLKLSCAASGFTFSNYAMAWVRQAPTKGLEWVASINSGGGDSYYRDSVKGRFTISRDNAKNTQYLQMDSLRSEDTATYYCATHNYGSTIFDYWGQGAMVTVSSGGGGSGGGGSGGGGSEIILTQSPTTMTASPGEKVTITCRASSSVSYMHWYQQKPGASPKPWIYETSKLASGVPDRFSGSGSGTSYSLTINNMEAEDAATYYCQQWNYPSMYTFGAGTKLELKR: 264000

Identify the reported kon for the following entry. anti-CD160 scFv clone 4 (scFv) scFv: EVKLVESGGGLVQPGRPLKLSCAASGFTFSNYGMAWVRQAPKKGLEWVATISTGDDNTYYRDSVKGRFTISRDNAKNTQYLQMDSLRSEDTATYYCATHNYESTIFDYWGQGVMVTVSSGGGGSGGGGSGGGGSDIAITQSPASMTASPGERVTITCRASSSVSYMHWYQQKPGASPKPWIYETSKLASGVPDRFSGSGSGTSYSLTINNMEAEDAATYYCQQWNYPSMYTFGAGTKLELKR
325000
